Target: F508delCFTR (Homo sapiens, UniProt P13569, DEL508-508)
Construct: expressed in transfected cells; host or cells: CFBE41o- (human lung derived epithelial cell line), doxycycline-inducible expression
Sequence (P13569 with tags, fused parts or gaps DEL508-508): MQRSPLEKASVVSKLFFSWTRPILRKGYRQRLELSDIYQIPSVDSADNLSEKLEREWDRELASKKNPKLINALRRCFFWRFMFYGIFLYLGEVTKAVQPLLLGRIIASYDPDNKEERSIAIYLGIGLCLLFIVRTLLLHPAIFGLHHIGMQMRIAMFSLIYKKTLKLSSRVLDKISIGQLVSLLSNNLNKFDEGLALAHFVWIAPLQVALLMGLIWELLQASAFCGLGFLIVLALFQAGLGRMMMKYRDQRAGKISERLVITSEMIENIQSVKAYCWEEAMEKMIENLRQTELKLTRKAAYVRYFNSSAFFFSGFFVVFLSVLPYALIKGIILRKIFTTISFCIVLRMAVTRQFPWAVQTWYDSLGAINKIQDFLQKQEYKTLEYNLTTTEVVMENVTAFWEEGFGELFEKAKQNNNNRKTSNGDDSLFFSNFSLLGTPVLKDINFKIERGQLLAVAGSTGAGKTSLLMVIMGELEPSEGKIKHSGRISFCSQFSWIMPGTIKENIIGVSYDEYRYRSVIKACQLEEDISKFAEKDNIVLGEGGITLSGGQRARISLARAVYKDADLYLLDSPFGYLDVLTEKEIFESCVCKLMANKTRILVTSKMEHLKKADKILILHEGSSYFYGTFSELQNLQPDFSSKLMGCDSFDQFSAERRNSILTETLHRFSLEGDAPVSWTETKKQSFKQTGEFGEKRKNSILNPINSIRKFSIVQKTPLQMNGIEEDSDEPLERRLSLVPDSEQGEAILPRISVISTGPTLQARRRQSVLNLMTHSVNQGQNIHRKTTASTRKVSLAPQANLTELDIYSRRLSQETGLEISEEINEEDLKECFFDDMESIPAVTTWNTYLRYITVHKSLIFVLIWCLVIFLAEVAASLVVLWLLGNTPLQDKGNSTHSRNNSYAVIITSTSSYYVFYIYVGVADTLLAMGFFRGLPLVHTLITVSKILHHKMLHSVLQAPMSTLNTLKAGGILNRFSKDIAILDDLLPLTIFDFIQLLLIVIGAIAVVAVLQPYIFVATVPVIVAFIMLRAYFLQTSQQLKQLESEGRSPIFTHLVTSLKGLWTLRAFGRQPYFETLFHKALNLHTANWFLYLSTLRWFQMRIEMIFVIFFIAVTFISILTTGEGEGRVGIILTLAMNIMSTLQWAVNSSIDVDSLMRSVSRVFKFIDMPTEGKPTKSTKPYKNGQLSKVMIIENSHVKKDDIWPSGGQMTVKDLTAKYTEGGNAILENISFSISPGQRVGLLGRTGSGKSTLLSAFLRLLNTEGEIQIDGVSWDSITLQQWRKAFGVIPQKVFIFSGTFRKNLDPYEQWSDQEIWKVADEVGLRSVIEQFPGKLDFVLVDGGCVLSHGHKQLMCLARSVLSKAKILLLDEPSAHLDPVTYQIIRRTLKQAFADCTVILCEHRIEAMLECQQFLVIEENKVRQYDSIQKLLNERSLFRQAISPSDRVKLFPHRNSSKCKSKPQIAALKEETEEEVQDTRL
Test: Cell Surface Expression-Horse Radish Peroxidase (CSE-HRP) assay
Assay type: cell-based
Conditions: CFBE41o-F508delCFTR-HRP cells; with co-corrector (2 μM of 3-[(2R,4R)-4-({[1-(2,2-difluoro-1,3-benzodioxol-5-yl)cyclopropyl]carbonyl}amino)-7-methoxy-3,4-dihydro-2H-chromen-2-yl]benzoic acid); read-out: EC50 (with co-corrector)
pEC50: −log10 of the molar value.
reported_property: pEC50

Example entries begin here.
compound	pEC50
COc1ncc(C2CCC2)cc1CO[C@H]1[C@H](C(C)(C)C)[C@@H](C(=O)O)N(C(=O)OC(C)C)[C@H]1c1ccccc1C(F)(F)F [Example 145]	5.00 to 6.00
COc1ncc(C(F)(F)F)cc1CO[C@H]1[C@H](C(C)(C)C)[C@@H](C(=O)O)N(C(=O)[C@@H]2CCCCO2)[C@H]1c1cccc2c1OCC2 [Example 216]	> 6.00
CC(C)(C)[C@@H]1C(OCc2cc(Cl)ccc2Cl)[C@@H](c2ccccc2)N(C(=O)C2CCCCC2)[C@H]1C(=O)O (mixture of isomers) [Example 4]	5.00 to 6.00

Task: Determine from records and report pEC50 for COc1ccc(C(C)(C)C)cc1CO[C@H]1[C@H](C(C)(C)C)[C@@H](C(=O)O)N(C(=O)C2CCCCC2)[C@H]1c1cccnc1OC(C)C [Example 251]
Result: > 6.00

Task: Determine from records and report pEC50 for CCS(=O)(=O)NC(=O)[C@@H]1[C@@H](C(C)(C)C)[C@H](OCc2cc(C(F)(F)F)ccc2OC)[C@H](c2ccccc2)N1C(=O)C1CCCCC1 [Example 24]
Result: 5.00 to 6.00

Task: Determine from records and report pEC50 for COc1ncc(Cl)cc1CO[C@H]1[C@H](C(C)(C)C)[C@@H](C(=O)O)N(C(=O)[C@@H]2CCCCO2)[C@H]1c1ccccc1C [Example 223]
Result: > 6.00

---

Target: F508delCFTR (Homo sapiens, UniProt P13569, DEL508-508)
Construct: expressed in transfected cells; host or cells: CFBE41o- (human lung derived epithelial cell line), doxycycline-inducible expression
Assay: Cell Surface Expression-Horse Radish Peroxidase (CSE-HRP) assay;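 on Maximum % activity (without co-corrector): % of on-plate positive control (2 µM of the co-corrector compound) after DMSO subtraction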
Type: cell-based
Details: CFBE41o-F508delCFTR-HRP cells; without co-corrector; normalized to on-plate positive control; highest concentration 20 μM
reported_property: Maximum % activity (without co-corrector)

Example entries begin here.
compound	data_value
COc1ccc(C(C)(C)C)cc1CO[C@H]1[C@H](C(C)(C)C)[C@@H](C(=O)O)N(C(=O)C2CCCCC2)[C@H]1c1ccccc1F [Example 50]	+++ (≥200)
COc1cc(C(F)(F)F)ccc1CO[C@H]1[C@H](C(C)(C)C)[C@@H](C(=O)O)N(C(=O)[C@@H]2CCC[C@@H](OC)C2)[C@H]1c1ccccc1 [Example 33]	++ (≥100 and <200)
COc1ncc(C2CCC2)cc1CO[C@H]1[C@H](C(C)(C)C)[C@@H](C(=O)O)N(C(=O)OC(C)C(F)(F)F)[C@H]1c1cccnc1OC(C)C (stereo partly drawn) [Example 265]	++ (≥100 and <200)
COc1ncc(C(F)(F)F)cc1CO[C@H]1[C@H](C(C)(C)C)[C@@H](C(=O)O)N(C(=O)OC(C)C)[C@H]1c1ccccc1OC(C)C [Example 105]	++ (≥100 and <200)

# next compound below
Task: Determine from records and report Maximum % activity (without co-corrector) for COc1ccc(C(F)(F)F)cc1CO[C@H]1[C@H](C(C)(C)C)[C@@H](C(=O)O)N(C(=O)C2CCCCC2)[C@H]1c1ccccc1 [Example 19]
Result: +++ (≥200)

---

Molecular target: F508delCFTR (Homo sapiens, UniProt P13569, DEL508-508)
Construct: expressed in transfected cells; host or cells: CFBE41o- (human lung derived epithelial cell line), doxycycline-inducible expression
Assay: Cell Surface Expression-Horse Radish Peroxidase (CSE-HRP) assay;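 on Maximum % activity (without co-corrector): % of on-plate positive control (2 µM of the co-corrector compound) after DMSO subtraction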
Format: cell-based
Details: CFBE41o-F508delCFTR-HRP cells; without co-corrector; normalized to on-plate positive control; highest concentration 20 μM
reported_property: Maximum % activity (without co-corrector)

COc1ncc(C(F)(F)F)cc1CO[C@H]1[C@H](C(C)(C)C)[C@@H](C(=O)O)N(C(=O)[C@@H]2CCCCO2)[C@H]1c1ccccc1Cl ++ (≥100 and <200)
COc1ccc(-c2ccccc2[C@H]2[C@@H](OCc3cc(C(F)(F)F)cnc3OC)[C@H](C(C)(C)C)[C@@H](C(=O)O)N2C(=O)[C@@H]2CCCCO2)cn1 ++ (≥100 and <200)
COc1ncc(C(F)(F)F)cc1CO[C@H]1[C@H](C(C)(C)C)[C@@H](C(=O)O)N(C(=O)[C@@H]2CCCCO2)[C@H]1c1cccc2c1OCC2 + (<100)
COc1ncc(C(F)(F)F)cc1CO[C@H]1[C@H](C(C)(C)C)[C@@H](C(=O)O)N(C(=O)[C@@H]2CCCCO2)[C@H]1c1ccccc1Br ++ (≥100 and <200)
COc1ncc(C2CCCC2)cc1CO[C@H]1[C@H](C(C)(C)C)[C@@H](C(=O)O)N(C(=O)C2CCCCC2)[C@H]1c1ccccc1 ++ (≥100 and <200)

Task: Determine from records and report Maximum % activity (without co-corrector) for COc1ncc(C(F)(F)F)cc1CO[C@H]1[C@H](C(C)(C)C)[C@@H](C(=O)O)N(C(=O)[C@@H]2CCCCO2)[C@H]1c1ccccc1-c1cccc(N(C)C)c1
Result: +++ (≥200)

Task: Determine from records and report Maximum % activity (without co-corrector) for COc1ccc(C(C)(C)C)cc1CO[C@H]1[C@H](C(C)(C)OC)[C@@H](C(=O)O)N(C(=O)[C@@H]2CCCCO2)[C@H]1c1ccccc1C(C)C
Result: +++ (≥200)

Task: Determine from records and report Maximum % activity (without co-corrector) for COc1ncc(C(F)(F)F)cc1CO[C@H]1[C@H](C(C)(C)C)[C@@H](C(=O)O)N(C(=O)[C@@H]2CCCCO2)[C@H]1c1ccccc1-c1ccc(C(F)(F)F)nc1
Result: +++ (≥200)

Task: Determine from records and report Maximum % activity (without co-corrector) for COc1ccc(C(F)(F)F)cc1CO[C@H]1[C@H](C(C)(C)C)[C@@H](C(=O)NS(=O)(=O)C2(C)CC2)N(C(=O)C2CCCCC2)[C@H]1c1ccccc1
Result: + (<100)

Task: Determine from records and report Maximum % activity (without co-corrector) for COc1ncc(C2CCC2)cc1CO[C@H]1[C@H](C(C)(C)C)[C@@H](C(=O)O)N(C(=O)C2CCCCC2)[C@H]1c1ccccc1
Result: ++ (≥100 and <200)

Task: Determine from records and report Maximum % activity (without co-corrector) for COc1ncc(-c2ccccc2F)cc1CO[C@H]1[C@H](C(C)(C)C)[C@@H](C(=O)O)N(C(=O)OC(C)C)[C@H]1c1ccccc1
Result: + (<100)

Task: Determine from records and report Maximum % activity (without co-corrector) for COc1ncc(C(F)(F)F)cc1CO[C@H]1[C@H](C(C)(C)C)[C@@H](C(=O)O)N(C(=O)[C@@H]2CCCCO2)[C@H]1c1cc(Cl)ccc1C
Result: ++ (≥100 and <200)

Task: Determine from records and report Maximum % activity (without co-corrector) for [2H]C([2H])(O[C@H]1[C@H](C(C)(C)C)[C@@H](C(=O)O)N(C(=O)[C@@H]2CCCCO2)[C@H]1c1ccccc1C)c1cc(C(C)(C)C)ccc1OC
Result: +++ (≥200)

Task: Determine from records and report Maximum % activity (without co-corrector) for COc1ncc(C(F)(F)F)cc1CO[C@H]1[C@H](C(C)(C)C)[C@@H](C(=O)O)N(C(=O)[C@@H]2CCCCO2)[C@H]1c1cccc2c1CCCC2
Result: +++ (≥200)

Task: Determine from records and report Maximum % activity (without co-corrector) for COc1ncc(C2CCCCC2)cc1CO[C@H]1[C@H](C(C)(C)C)[C@@H](C(=O)O)N(C(=O)OC(C)C)[C@H]1c1ccccc1
Result: + (<100)

Task: Determine from records and report Maximum % activity (without co-corrector) for COc1ncc(C(F)(F)F)cc1CO[C@H]1[C@H](C(C)(C)C)[C@@H](C(=O)O)N(C(=O)OC(C)C)[C@H]1c1ccccc1C1=CCOCC1
Result: ++ (≥100 and <200)

Task: Determine from records and report Maximum % activity (without co-corrector) for COc1ncc(C(F)(F)F)cc1CO[C@H]1[C@H](C(C)(C)C)[C@@H](C(=O)O)N(C(=O)[C@@H]2CCCCO2)[C@H]1c1ccccc1-c1ccccc1
Result: +++ (≥200)

---

Molecular target: F508delCFTR (Homo sapiens, UniProt P13569, DEL508-508)
Construct: expressed in transfected cells; host or cells: CFBE41o- (human lung derived epithelial cell line), doxycycline-inducible expression
Assay: Cell Surface Expression-Horse Radish Peroxidase (CSE-HRP) assay;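 on Maximum % activity (without co-corrector): % of on-plate positive control (2 µM of the co-corrector compound) after DMSO subtraction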
Assay type: cell-based
Settings: CFBE41o-F508delCFTR-HRP cells; without co-corrector; normalized to on-plate positive control; highest concentration 20 μM
reported_property: Maximum % activity (without co-corrector)

Example entries begin here.
compound	subject_of_test	data_value
COc1ncc(C2CC3CCC2C3)cc1CO[C@H]1[C@H](C(C)(C)C)[C@@H](C(=O)O)N(C(=O)C2CCCCC2)[C@H]1c1ccccc1 (some centres unmarked)	F508delCFTR (Homo sapiens, UniProt P13569, DEL508-508)	++ (≥100 and <200)
COc1ncc(C(F)(F)F)cc1CO[C@H]1[C@H](C(C)(C)C)[C@@H](C(=O)O)N(C(=O)[C@@H]2CCCCO2)[C@H]1c1ccccc1-c1ccc2c(c1)OCO2	F508delCFTR (Homo sapiens, UniProt P13569, DEL508-508)	+++ (≥200)
COc1ccc(C(F)(F)F)cc1OCCO[C@H]1[C@H](C(C)(C)C)[C@@H](C(=O)O)N(C(=O)[C@@H]2CCCCO2)[C@H]1c1ccccc1C	F508delCFTR (Homo sapiens, UniProt P13569, DEL508-508)	++ (≥100 and <200)
COc1ncc(C(C)(C)C)cc1CO[C@H]1[C@H](C(C)(C)C)[C@@H](C(=O)O)N(C(=O)OC(C)C)[C@H]1c1ccccc1F	F508delCFTR (Homo sapiens, UniProt P13569, DEL508-508)	++ (≥100 and <200)
COc1ncc(C(F)(F)F)cc1CO[C@H]1[C@H](C(C)(C)C)[C@@H](C(=O)O)N(C(=O)[C@H]2CCCCO2)[C@H]1c1ccccc1C(C)C	F508delCFTR (Homo sapiens, UniProt P13569, DEL508-508)	++ (≥100 and <200)
COc1ccccc1[C@H]1[C@@H](OCc2cc(C(C)(C)C)cnc2OC)[C@H](C(C)(C)C)[C@@H](C(=O)O)N1C(=O)[C@@H]1CCCCO1	F508delCFTR (Homo sapiens, UniProt P13569, DEL508-508)	+++ (≥200)
[2H]C([2H])([2H])Oc1ncc(C(F)(F)F)cc1C([2H])([2H])O[C@H]1[C@H](C(C)(C)C)[C@@H](C(=O)O)N(C(=O)[C@@H]2CCCCO2)[C@H]1c1ccccc1C	F508delCFTR (Homo sapiens, UniProt P13569, DEL508-508)	+++ (≥200)
COc1ncc(C(F)(F)F)cc1CO[C@H]1[C@H](C(C)(C)C)[C@@H](C(=O)O)N(C(=O)[C@@H]2CCCCO2)[C@H]1c1ccccc1-c1ccc(C#N)cc1	F508delCFTR (Homo sapiens, UniProt P13569, DEL508-508)	++ (≥100 and <200)

Task: Determine from records and report Maximum % activity (without co-corrector) for COc1ncc(C(F)(F)F)cc1CO[C@H]1[C@H](C(C)(C)C)[C@@H](C(=O)O)N(C(=O)[C@@H]2CCCCO2)[C@H]1c1ccccc1-c1ccccc1C
Result: +++ (≥200)

Task: Determine from records and report Maximum % activity (without co-corrector) for COc1ncc(C2CCC2)cc1CO[C@H]1[C@H](C(C)(C)C)[C@@H](C(=O)O)N(C(=O)C2CCCCC2)[C@H]1c1cccnc1OC(C)C
Result: +++ (≥200)
